molecular target: ASIC3 (acid-sensing ion channel 3) (Rattus norvegicus, UniProt O35240); construct: homomeric rat ASIC3 expressed in CHO cells; assay: whole-cell patch clamp, peak current inhibition at pH […]; assay type: cell-based
MEASUREMENT NAME: IC50 (µM)
Provide only the numeric value, understood in µM.

Query string: Can you look up IC50 on ASIC3 (acid-sensing ion channel 3) (Rattus norvegicus, UniProt O35240) for "N=C(N)NCCC1(c2ccccc2)CCCCC1" ?
Result string: 21

###

Target: ASIC3 (acid-sensing ion channel 3) (Rattus norvegicus, UniProt O35240)
Construct: homomeric rat ASIC3 expressed in CHO cells
Sequence (O35240 1-533): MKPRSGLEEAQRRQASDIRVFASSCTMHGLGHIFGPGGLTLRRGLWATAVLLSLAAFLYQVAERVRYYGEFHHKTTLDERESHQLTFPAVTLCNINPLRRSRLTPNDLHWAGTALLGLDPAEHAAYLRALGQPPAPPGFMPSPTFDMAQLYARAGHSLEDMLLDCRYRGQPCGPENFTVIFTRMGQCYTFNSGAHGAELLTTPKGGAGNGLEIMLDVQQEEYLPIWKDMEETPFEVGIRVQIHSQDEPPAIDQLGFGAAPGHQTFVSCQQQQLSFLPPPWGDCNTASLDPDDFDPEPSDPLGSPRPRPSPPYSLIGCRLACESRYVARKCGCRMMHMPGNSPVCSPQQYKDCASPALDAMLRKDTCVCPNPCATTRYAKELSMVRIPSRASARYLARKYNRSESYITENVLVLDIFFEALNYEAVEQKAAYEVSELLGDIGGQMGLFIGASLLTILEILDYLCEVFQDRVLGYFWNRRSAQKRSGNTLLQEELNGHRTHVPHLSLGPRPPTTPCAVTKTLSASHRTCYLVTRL
Experiment: whole-cell patch clamp, sustained current inhibition at pH […]
Type: cell-based
MEASUREMENT NAME: pIC50
On this scale, pIC50 is minus log10 of a concentration expressed in M (mol/L).

Query string: // query pIC50 value for entry "CC12CC3CC(C)(C1)CC(NC(=N)N)(C3)C2"
Result string: 3.93
